Target: BCL6 (Homo sapiens, UniProt P41182)
Construct: endogenous in cells; host or cells: T47D breast cancer epithelial cells
Experiment: Immunofluorescence protocol for high content imaging of BCL6 (degradation) in T47D cells, 3 days compound treatment
Format: cell-based
Details: T47D cells, 3 days compound treatment, read-out: Mean Dmax (%)** category
readout_type: Dmax

Known Dmax results, listed for orientation:
molecule	subject_of_test	Dmax
CC[C@H]1CN([C@H]2C[C@H](OC3CCN(c4ncc(Cl)c(Nc5ccc6c(c5)cc(OCC(=O)NC)c(=O)n6C(C)C)n4)CC3)C2)CCN1c1ccc2c(c1Cl)CN(C1CCC(=O)NC1=O)C2=O (some centres unmarked)	BCL6 (Homo sapiens, UniProt P41182)	≥ 70%
CNC(=O)COc1cc2cc(Nc3nc(N4CCC(C(=O)N5CCC6(CCN(c7ccc8c(c7)CN(C7CCC(=O)NC7=O)C8=O)C6)C5)CC4)ncc3Cl)ccc2n(C(C)C)c1=O (centres unmarked)	BCL6 (Homo sapiens, UniProt P41182)	50 to 70%
CNC(=O)COc1cc2cc(Nc3nc(N4CCC(O[C@H]5CC[C@@H](N6CCC(c7ccc8c(c7)C(=O)N(C7CCC(=O)NC7=O)C8=O)CC6)CC5)CC4)ncc3Cl)ccc2n(C(C)C)c1=O (some centres unmarked)	BCL6 (Homo sapiens, UniProt P41182)	≥ 70%
CNC(=O)COc1cc2cc(Nc3nc(N4CCC(O[C@H]5C[C@H](N6CCC(c7cc(C)c8c(c7F)CN(C7CCC(=O)NC7=O)C8=O)CC6)C5)CC4)ncc3Cl)ccc2n(C(C)C)c1=O (some centres unmarked)	BCL6 (Homo sapiens, UniProt P41182)	≥ 70%
CNC(=O)COc1cc2cc(Nc3nc(N4CCN(CC5CCC6(CC5)CN(c5cc(OC)cc7c5C(=O)N(C5CCC(=O)NC5=O)C7=O)C6)CC4)ncc3Cl)ccc2n(C(C)C)c1=O (centres unmarked)	BCL6 (Homo sapiens, UniProt P41182)	50 to 70%

Per the records, this molecule ( CNC(=O)COc1cc2c(F)c(Nc3nc(N4CCN(CC5CCC6(CC5)CN(c5cccc7c5C(=O)N(C5CCC(=O)NC5=O)C7=O)C6)CC4)ncc3Cl)ccc2n(C(C)C)c1=O (centres unmarked) ) has Dmax equal to ≥ 70%

Dmax measured on CNC(=O)COc1cc2cc(Nc3nc(N4CCCC4)ncc3Cl)ccc2n(CCOc2ccc3c(c2)C(=O)N(C2CCC(=O)NC2=O)C3=O)c1=O (centres unmarked) = 50 to 70%

Form: molecule = CNC(=O)COc1cc2cc(Nc3nc(N4CCC5(CCN(CC6CCN(c7ccc8c(c7)CN(C7CCC(=O)NC7=O)C8=O)CC6)C5)C4)ncc3Cl)ccc2n(C(C)C)c1=O (centres unmarked) ; Dmax = 50 to 70%
